- Tested on: Caco-2 cells
- test: Caco-2 permeability / efflux transporter substrate
- conditionDescription: 3 μM, pH 7.4, 120 min
Measured Caco-2 Mean Papp B to A by item
measurementType: Caco-2 Mean Papp B to A

>>> val("CCCc1nnc(SCC2=C(C(=O)O)N3C(=O)[C@@H](NC(=O)Cc4ccc(C(=N)N)cc4)[C@H]3SC2)s1")
"< 0.06 10-6 cm/s"
>>> val("O=C(O)C1=C(CSc2cccc[n+]2[O-])CS[C@@H]2[C@H](NC(=O)C(F)c3ccccc3)C(=O)N12 (stereo partly shown)")
"< 0.11 10-6 cm/s"
>>> val("Cn1c(SCC2=C(C(=O)O)N3C(=O)[C@@H](NC(=O)Cc4ccccc4CN)[C@H]3SC2)nnc(O)c1=O")
"0.24 10-6 cm/s"
>>> val("CC=CC(=O)OCC1=C(C(=O)O)N2C(=O)[C@@H](NC(=O)C(=NO)c3cccs3)[C@H]2SC1")
"0.63 10-6 cm/s"
>>> val("Cn1nnnc1SCC1=C(C(=O)O)N2C(=O)[C@@H](NC(=O)Cc3ccc(C4=NCCCN4)cc3)[C@H]2SC1")
"0.38 10-6 cm/s"
>>> val("NCc1ccccc1CC(=O)N[C@@H]1C(=O)N2C(C(=O)O)=C(CSc3nnnn3CCO)CS[C@H]12")
"0.27 10-6 cm/s"
>>> val("CCc1nnc(SCC2=C(C(=O)O)N3C(=O)[C@@H](NC(=O)Cc4ccc(C5=NCCN5)cc4)[C@H]3SC2)s1")
"0.43 10-6 cm/s"
>>> val("CON=C(C(=O)N[C@@H]1C(=O)N2C(C(=O)O)=C(CSc3cccc[n+]3[O-])CS[C@H]12)c1csc(N)n1")
"0.31 10-6 cm/s"
>>> val("CC(=O)OCC1=C(C(=O)O)N2C(=O)[C@@H](NC(=O)CSc3ccncc3)[C@H]2SC1")
"< 0.37 10-6 cm/s"
>>> val("CNCc1ccccc1CC(=O)N[C@@H]1C(=O)N2C(C(=O)O)=C(CSc3nnnn3C)CS[C@H]12")
"< 0.21 10-6 cm/s"

* * *

- System: Caco-2 cells
- test: Caco-2 permeability / efflux transporter substrate
- conditionDescription: Caco-2
Measured Caco-2 Efflux Ratio by item
measurementType: Caco-2 Efflux Ratio

>>> val("Cn1c(SCC2=C(C(=O)O)N3C(=O)[C@@H](NC(=O)Cc4ccccc4CN)[C@H]3SC2)nnc(O)c1=O")
1.52
>>> val("Cn1nnnc1SCC1=C(C(=O)O)N2C(=O)[C@@H](NC(=O)Cc3ccc(C4=NCCCN4)cc3)[C@H]2SC1")
2.12
>>> val("CON=C(C(=O)N[C@@H]1C(=O)N2C(C(=O)O)=C(CSc3cccc[n+]3[O-])CS[C@H]12)c1csc(N)n1")
"> 3.03"
>>> val("NCc1ccccc1CC(=O)N[C@@H]1C(=O)N2C(C(=O)O)=C(CSc3nnnn3CCO)CS[C@H]12")
"> 2.26"
>>> val("CCc1nnc(SCC2=C(C(=O)O)N3C(=O)[C@@H](NC(=O)Cc4ccc(C5=NCCN5)cc4)[C@H]3SC2)s1")
0.94
>>> val("CC=CC(=O)OCC1=C(C(=O)O)N2C(=O)[C@@H](NC(=O)C(=NO)c3cccs3)[C@H]2SC1")
"> 1.68"

* * *

- Test system: plasma proteins
- test: Plasma protein binding (equilibrium dialysis), SD rat
- conditionDescription: 2 μM
measurementType: % bound to plasma, SD Rat (%)

>>> val("NCc1ccccc1CC(=O)N[C@@H]1C(=O)N2C(C(=O)O)=C(CSc3nnnn3CCO)CS[C@H]12 [TBBL-0000656]")
50.2
>>> val("CCCc1nnc(SCC2=C(C(=O)O)N3C(=O)[C@@H](NC(=O)Cc4ccc(C(=N)N)cc4)[C@H]3SC2)s1 [TBBL-0000314]")
84.6
>>> val("Cn1nnnc1SCC1=C(C(=O)O)N2C(=O)[C@@H](NC(=O)Cc3ccc(C4=NCCCN4)cc3)[C@H]2SC1 [TBBL-0000309]")
38.2
>>> val("CC(=O)OCC1=C(C(=O)O)N2C(=O)[C@@H](NC(=O)CSc3ccncc3)[C@H]2SC1 [TBBL-0000063]")
42.4
>>> val("O=C(O)C1=C(CSc2cccc[n+]2[O-])CS[C@@H]2[C@H](NC(=O)C(F)c3ccccc3)C(=O)N12 (stereo partly drawn) [TBBL-0000004]")
62.0
>>> val("CON=C(C(=O)N[C@@H]1C(=O)N2C(C(=O)O)=C(CSc3cccc[n+]3[O-])CS[C@H]12)c1csc(N)n1 [TBBL-0000539]")
61.3
>>> val("CNCc1ccccc1CC(=O)N[C@@H]1C(=O)N2C(C(=O)O)=C(CSc3nnnn3C)CS[C@H]12 [TBBL-0000468]")
39.1
>>> val("CCc1nnc(SCC2=C(C(=O)O)N3C(=O)[C@@H](NC(=O)Cc4ccc(C5=NCCN5)cc4)[C@H]3SC2)s1 [TBBL-0000310]")
81.2
>>> val("Cn1c(SCC2=C(C(=O)O)N3C(=O)[C@@H](NC(=O)Cc4ccccc4CN)[C@H]3SC2)nnc(O)c1=O [TBBL-0000460]")
29.0

* * *

- test: in vivo
- conditionDescription: female, CD-1, mouse, iv, 5 mg/kg
measurementType: half-life (min)

>>> val("O=C(CCCC(NC(=O)c1ccc(Cl)cc1Cl)C(=O)O)N[C@@H]1C(=O)N2C(C(=O)O)=C(CSc3cccc[n+]3[O-])CS[C@H]12 (some centres unmarked) [TBBL-0000552]")
46.8
>>> val("O=C(Cc1cccs1)N[C@@H]1C(=O)N2C(C(=O)O)=C(CSc3cccc[n+]3[O-])CS[C@H]12 [TBBL-0000001]")
30
>>> val("CN(C)C(=S)SCC1=C(C(=O)O)N2C(=O)[C@@H](NC(=O)Cc3cccs3)[C@H]2SC1 [TBBL-0000009]")
30
>>> val("O=C(Cc1ccc(C2=NCCN2)cc1)N[C@@H]1C(=O)N2C(C(=O)O)=C(CSc3nncs3)CS[C@H]12 [TBBL-0000316]")
34.8
>>> val("O=C(O)C1=C(CSc2cccc[n+]2[O-])CS[C@@H]2[C@H](NC(=O)/C(=N\\Oc3ccccc3)c3ccco3)C(=O)N12 [TBBL-0000005]")
32.4

* * *

- test: in vivo
- conditionDescription: female, CD-1, mouse, po, 25 mg/kg
Classify as follows. Reported AUC(0-t) greater than or equal to 100 ng·h/mL: class 1. Reported AUC(0-t) below: class 0.

>>> label("CN(C)C(=S)SCC1=C(C(=O)O)N2C(=O)[C@@H](NC(=O)Cc3cccs3)[C@H]2SC1")
"class 1"
>>> label("O=C(Cc1cccs1)N[C@@H]1C(=O)N2C(C(=O)O)=C(CSc3cccc[n+]3[O-])CS[C@H]12")
"class 1"
>>> label("O=C(CCCC(NC(=O)c1ccc(Cl)cc1Cl)C(=O)O)N[C@@H]1C(=O)N2C(C(=O)O)=C(CSc3cccc[n+]3[O-])CS[C@H]12 (some centres unmarked)")
"class 0"
>>> label("O=C(Cc1ccc(C2=NCCN2)cc1)N[C@@H]1C(=O)N2C(C(=O)O)=C(CSc3nncs3)CS[C@H]12")
"class 1"

* * *

- test: in vitro
- conditionDescription: cynomolgus monkey, plasma, pH 7.4
Measured fraction unbound at 4 h, 2 μM by item
measurementType: fraction unbound at 4 h, 2 μM

>>> val("O=C(Cc1cccs1)N[C@@H]1C(=O)N2C(C(=O)O)=C(CSc3cccc[n+]3[O-])CS[C@H]12 [TBBL-0000001]")
0.166
>>> val("O=C(CCCC(NC(=O)c1ccc(Cl)cc1Cl)C(=O)O)N[C@@H]1C(=O)N2C(C(=O)O)=C(CSc3cccc[n+]3[O-])CS[C@H]12 (some centres unmarked) [TBBL-0000552]")
0.198
>>> val("CN(C)C(=S)SCC1=C(C(=O)O)N2C(=O)[C@@H](NC(=O)Cc3cccs3)[C@H]2SC1 [TBBL-0000009]")
0.047
>>> val("O=C(Cc1ccc(C2=NCCN2)cc1)N[C@@H]1C(=O)N2C(C(=O)O)=C(CSc3nncs3)CS[C@H]12 [TBBL-0000316]")
0.335
>>> val("O=C(O)C1=C(CSc2cccc[n+]2[O-])CS[C@@H]2[C@H](NC(=O)/C(=N\\Oc3ccccc3)c3ccco3)C(=O)N12 [TBBL-0000005]")
0.06

* * *

- System: Caco-2 cells
- test: Caco-2 permeability / efflux transporter substrate
- conditionDescription: 3 μM, pH 7.4, 120 min
Measured Caco-2 Mean Papp A to B by item
measurementType: Caco-2 Mean Papp A to B

>>> val("Cn1nnnc1SCC1=C(C(=O)O)N2C(=O)[C@@H](NC(=O)Cc3ccc(C4=NCCCN4)cc3)[C@H]2SC1")
"0.18 10-6 cm/s"
>>> val("CC(=O)OCC1=C(C(=O)O)N2C(=O)[C@@H](NC(=O)CSc3ccncc3)[C@H]2SC1")
"< 0.41 10-6 cm/s"
>>> val("CCc1nnc(SCC2=C(C(=O)O)N3C(=O)[C@@H](NC(=O)Cc4ccc(C5=NCCN5)cc4)[C@H]3SC2)s1")
"0.46 10-6 cm/s"
>>> val("Cn1c(SCC2=C(C(=O)O)N3C(=O)[C@@H](NC(=O)Cc4ccccc4CN)[C@H]3SC2)nnc(O)c1=O")
"0.16 10-6 cm/s"
>>> val("NCc1ccccc1CC(=O)N[C@@H]1C(=O)N2C(C(=O)O)=C(CSc3nnnn3CCO)CS[C@H]12")
"< 0.12 10-6 cm/s"
>>> val("O=C(O)C1=C(CSc2cccc[n+]2[O-])CS[C@@H]2[C@H](NC(=O)C(F)c3ccccc3)C(=O)N12 (stereo partly shown)")
"< 0.12 10-6 cm/s"
>>> val("CON=C(C(=O)N[C@@H]1C(=O)N2C(C(=O)O)=C(CSc3cccc[n+]3[O-])CS[C@H]12)c1csc(N)n1")
"< 0.10 10-6 cm/s"
>>> val("CCCc1nnc(SCC2=C(C(=O)O)N3C(=O)[C@@H](NC(=O)Cc4ccc(C(=N)N)cc4)[C@H]3SC2)s1")
"< 0.07 10-6 cm/s"
>>> val("CNCc1ccccc1CC(=O)N[C@@H]1C(=O)N2C(C(=O)O)=C(CSc3nnnn3C)CS[C@H]12")
"< 0.25 10-6 cm/s"
>>> val("CC=CC(=O)OCC1=C(C(=O)O)N2C(=O)[C@@H](NC(=O)C(=NO)c3cccs3)[C@H]2SC1")
"< 0.38 10-6 cm/s"
